Would you kindly list normalized growth for each of these compounds?
assay: chemical genetic growth profiling, strain panel (AID 1159580);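 also: tested at 20 µM; growth read once vehicle control cultures reached saturation at 30 °C; 1 = growth at the plate median or of vehicle wells; lower values mean less growth of the strain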; settings: S. cerevisiae deletion strains, growth OD, locus YNL322C, strain KRE1 (second series), hits give low values
Among all 5,500 compounds or so, about 2,000 (36%) were called active. Not shown: some 18% with an inconclusive outcome. The list shows a part of the results.
Lab note: jot the number down without any unit.

So what's the measured normalized growth for this one? OCCN1C[C@@H](O)[C@@H](O)C(O)C1CO (stereo partly specified)
1.02

So what's the measured normalized growth for this one? CCOC(=O)[C@H](CCc1ccccc1)N[C@H]1CCc2ccccc2N(CC(=O)O)C1=O
0.967

So what's the measured normalized growth for this one? COc1ccc2c3c1O[C@H]1C[C@@H](O)C=C[C@@]31CCN(C)C2
1

So what's the measured normalized growth for this one? CC(N)CCCC(C)(C)O (stereo unspecified)
0.972

So what's the measured normalized growth for this one? COc1ccc2c(c1OC)C(=O)O[C@@H]2[C@H]1c2cc3c(cc2CCN1C)OCO3
0.99

So what's the measured normalized growth for this one? O=C1C=CC(=C(c2ccc(O)cc2)c2ccc(O)cc2)C=C1
0.951

###

assay: chemical genetic growth profiling, strain panel (AID 1159580);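 also: tested at 20 µM; growth read once vehicle control cultures reached saturation at 30 °C; 1 = growth at the plate median or of vehicle wells; lower values mean less growth of the strain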; details: S. cerevisiae deletion strains, growth OD, locus YNL183C, strain NPR1
About 2,000 (36%) of roughly 5,500 compounds were called active. Not shown: some 18% with an inconclusive outcome. Rule as the data show it: active = normalized growth mostly below about 0.91 (no sharp cut-off); inconclusive = no clear call, values can overlap the other calls; inactive = mostly above about 0.92. This is one part of the list.
Log the outcome using a class from true (1) = active, false (0) = inactive

How did this test come out for CC(N)C(=O)NC(Cc1ccccc1)C(=O)O (stereo not given) ?
false (0)

How did this test come out for CC(C(=O)O)c1ccc(-c2ccccc2)c(F)c1 (stereo not given) ?
true (1)

How did this test come out for CC(C)OC(=O)C(C)(C)Oc1ccc(C(=O)c2ccc(Cl)cc2)cc1 ?
false (0)

How did this test come out for Cc1ccc(-c2csc(-c3cccnc3)n2)c(C)c1 ?
false (0)

How did this test come out for CS(=NC(=O)c1cccc(Cl)c1)c1ccc(OC(=O)c2ccc(Cl)cc2)cc1 (stereo not given) ?
false (0)

How did this test come out for c1cncc(C2CCCCN2)c1 (stereo not given) ?
false (0)

How did this test come out for O=C(O)C1(O)C[C@@H](O)C(O)[C@H](O)C1 (stereo not given in full) ?
false (0)

How did this test come out for NC(=O)c1ccc[n+]([C@@H]2O[C@H](COP(=O)([O-])OP(=O)(O)OC[C@H]3O[C@@H](n4cnc5c(N)ncnc54)[C@H](O)[C@@H]3O)[C@@H](O)[C@H]2O)c1 ?
false (0)

How did this test come out for CCOC(=O)C(C)(C)Oc1ccc(Cl)cc1 ?
false (0)

How did this test come out for CC(C)(C)CN/C(C#N)=C(/C#N)NCc1cccc(Cl)c1 ?
false (0)

How did this test come out for CCOC(=O)CSC(=S)NCc1ccc(C)cc1 ?
false (0)

How did this test come out for Cc1cc(O)c(C)c(O)c1C(=O)O ?
false (0)

How did this test come out for c1ccc(N=Nc2ccccc2)cc1 ?
false (0)

How did this test come out for ClC1=C(Cl)C2(Cl)C3C4CC(C5OC45)C3C1(Cl)C2(Cl)Cl (stereo not given) ?
false (0)

How did this test come out for ClC1=C(Cl)C2(Cl)C3C4C=CC(C4)C3C1(Cl)C2(Cl)Cl (stereo not given) ?
false (0)

How did this test come out for CC(N)C(=O)OC(C)(C)Cc1ccc(Cl)cc1 (stereo not given) ?
false (0)

How did this test come out for C=C(C)C1CNC(C(=O)O)C1CC(=O)O (stereo not given) ?
false (0)

How did this test come out for CCCCNc1cc(C(=O)O)cc(S(N)(=O)=O)c1Oc1ccccc1 ?
false (0)

How did this test come out for O=C(CSc1nnnn1-c1ccccc1)c1ccccc1 ?
true (1)

How did this test come out for CC[N+](C)(CC)CCOC(=O)C(O)(c1ccccc1)C1CCCCC1 (stereo not given) ?
false (0)

How did this test come out for Cc1c(Cc2ccc(F)cc2)c(=O)oc2cc(O)ccc12 ?
false (0)

How did this test come out for CCOC(=O)c1c(C)cc(O)c(C=O)c1O ?
true (1)

How did this test come out for CCN(CC)CC#CCOC(=O)C(O)(c1ccccc1)C1CCCCC1 (stereo not given) ?
false (0)

How did this test come out for CC1=C(/C=C/C(C)=C/C=C/C(C)=C/C=C/C=C(C)/C=C/C=C(C)/C=C/C(=O)[C@]2(C)C[C@@H](O)CC2(C)C)C(C)(C)C[C@H](O)C1 ?
false (0)

How did this test come out for CC1/C(=N\O)C[C@@H]2C[C@H]1C2(C)C (stereo not given in full) ?
false (0)

How did this test come out for CC(C(=O)O)c1cccc(C(=O)c2ccccc2)c1 (stereo not given) ?
false (0)

How did this test come out for ClC1=C(Cl)C2(Cl)C3C(Cl)C=CC3C1(Cl)C2(Cl)Cl (stereo not given) ?
false (0)

How did this test come out for COc1ccc(NNC(=O)c2sc3ccccc3c2Cl)cc1 ?
false (0)

How did this test come out for COc1ccc2cc([C@H](C)C(=O)O)ccc2c1 ?
false (0)

How did this test come out for CCCCCCCCCCCCCCCC(=O)OC/C=C(C)/C=C/C=C(C)/C=C/C1=C(C)CCCC1(C)C ?
false (0)

###

test: chemical genetic growth profiling, strain panel (AID 1159580);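 also: tested at 20 µM; growth read once vehicle control cultures reached saturation at 30 °C; 1 = growth at the plate median or of vehicle wells; lower values mean less growth of the strain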; conditions: S. cerevisiae deletion strains, growth OD, locus YDR334W, strain swr1
Screen size: about 5,500 compounds; about 2,000 (36%) were called active. Roughly 18% stayed inconclusive and do not appear here. Rule as the data show it: active = normalized growth mostly below about 0.91 (no sharp cut-off); inconclusive = no clear call, values can overlap the other calls; inactive = mostly above about 0.92. The list shows a part of the results.
Log the outcome using a class from 1 for active, -1 for inactive

How did this test come out for CCCCNc1cc(C(=O)O)cc(S(N)(=O)=O)c1Oc1ccccc1 ?
-1

How did this test come out for CCC(=O)O[C@H]1[C@H](O[C@@H]2[C@@H](C)[C@H](O[C@H]3C[C@@](C)(OC)[C@@H](O)[C@H](C)O3)[C@@H](C)C(=O)O[C@H](CC)[C@@](C)(O)[C@H](O)[C@@H](C)C(=O)[C@H](C)C[C@@]2(C)O)O[C@H](C)C[C@@H]1N(C)C ?
-1

How did this test come out for CS(=O)(=O)c1ccc(C2=C(c3ccccc3)C(=O)OC2)cc1 ?
-1

How did this test come out for CCCCCCCCCCCCCCCC[N+](C)(C)C ?
1

How did this test come out for CCN(CC)CCNC(=O)c1cc(Br)c(N)cc1OC ?
-1

How did this test come out for CC(=O)OC(C)(C)[C@@H]1Cc2cc3ccc(=O)oc3cc2O1 ?
-1

How did this test come out for COC1=CC(=O)C[C@@H](C)[C@]12Oc1c(Cl)c(OC)cc(OC)c1C2=O ?
-1

How did this test come out for CCN(CC)CCCC(C)Nc1ccnc2cc(Cl)ccc12 (stereo not given) ?
-1

How did this test come out for CCOC(=O)C(Cc1ccc(O)cc1)NC(C)=O (stereo not given) ?
-1

How did this test come out for Cc1cccc(C)c1OCC(C)N (stereo not given) ?
-1

###

Would you kindly list normalized growth for each of these compounds?
experiment: chemical genetic growth profiling, strain panel (AID 1159580);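 also: tested at 20 µM; growth read once vehicle control cultures reached saturation at 30 °C; 1 = growth at the plate median or of vehicle wells; lower values mean less growth of the strain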; settings: S. cerevisiae deletion strains, growth OD, locus YJL166W, strain qcr8, hits give low values
In all, about 5,500 compounds went through this assay and about 2,000 (36%) were called active. Not shown: some 18% with an inconclusive outcome. Some of the results follow.
Lab note: jot the number down without any unit.

So what's the measured normalized growth for this one? CN1CCC(=C2c3ccccc3CCc3sccc32)CC1
0.98

So what's the measured normalized growth for this one? COc1cc2c(cc1OC)Cc1cc(OC)c(OC)cc1Cc1cc(OC)c(OC)cc1C2
1.03

So what's the measured normalized growth for this one? CC(NCCc1ccc(O)cc1)C(O)c1ccc(O)cc1 (stereo not drawn)
1.03

So what's the measured normalized growth for this one? COc1cc2c(cc1OC)[C@@H]1C(=O)c3ccc(OC)c(CC=C(C)C)c3O[C@@H]1CO2
1.03

So what's the measured normalized growth for this one? COc1cc(/C=C/C(=O)/C=C(O)/C=C/c2ccc(O)c(OC)c2)ccc1O
0.0762

So what's the measured normalized growth for this one? Cc1cccc(C)c1OCC(C)N (stereo not drawn)
1

So what's the measured normalized growth for this one? CCOC(=O)[C@H](CCc1ccccc1)N[C@H]1CCc2ccccc2N(CC(=O)O)C1=O
0.964

So what's the measured normalized growth for this one? O=C(O)c1cc2ccccc2c(Cc2c(O)c(C(=O)O)cc3ccccc23)c1O
0.992

So what's the measured normalized growth for this one? COc1cc2c(cc1OC)C(=O)OC2
0.981

So what's the measured normalized growth for this one? COc1ccc2c3c1O[C@H]1C[C@@H](O)C=C[C@@]31CCN(C)C2
1.01

So what's the measured normalized growth for this one? CN(C)CC/C=C1\c2ccccc2Sc2ccc(Cl)cc21
0.877

So what's the measured normalized growth for this one? CCN(CC)CCCC(C)Nc1ccnc2cc(Cl)ccc12 (stereo not drawn)
1

So what's the measured normalized growth for this one? CN[C@@H](C)[C@@H](O)c1ccccc1
1.01

So what's the measured normalized growth for this one? C[C@H]1CC2C([C@@H](O)C[C@@]3(C)C2CC[C@]3(O)C(=O)CO)[C@@]2(C)C=CC(=O)C=C12 (stereo partly drawn)
0.97

So what's the measured normalized growth for this one? CCN(CCO)CCCC(C)Nc1ccnc2cc(Cl)ccc12 (stereo not drawn)
1

So what's the measured normalized growth for this one? COCCc1ccc(OCC(O)CNC(C)C)cc1 (stereo not drawn)
0.981

So what's the measured normalized growth for this one? COc1cc2c(cc1OC)[C@@H]1C(=O)c3ccc4c(c3O[C@@H]1CO2)C=CC(C)(C)O4
0.959

So what's the measured normalized growth for this one? CCCCCCCCCCCCCCCC[N+](C)(C)C
0.0568

So what's the measured normalized growth for this one? O=C(O)C1(O)C[C@@H](O)C(O)[C@H](O)C1 (stereo partly drawn)
1.01

So what's the measured normalized growth for this one? COC1=CC(=O)C[C@@H](C)[C@]12Oc1c(Cl)c(OC)cc(OC)c1C2=O
1

So what's the measured normalized growth for this one? CN1CCC(=C2c3ccccc3Sc3ccccc32)CC1
1.03

So what's the measured normalized growth for this one? COc1cc2c(cc1OC)[C@@H]1C(=O)c3ccc(O)c(CC=C(C)C)c3O[C@@H]1CO2
1.06

So what's the measured normalized growth for this one? CC1CC2C3CC(F)C4=CC(=O)C=CC4(C)C3(F)C(O)CC2(C)C1(O)C(=O)CO (stereo not drawn)
0.993
